- Tested on: PC-3
- PROTOCOL DESCRIPTION: Growth inhibitory activity against Prostate cancer PC-3 cell line was determined
- Format: functional
- DETAILS: Homo sapiens
ASSAY ENDPOINT: GI50 (µM)
Supply the numeric figure in µM, leaving out any unit text.

Read the entry O=C(Oc1c(Cl)cc(Cl)cc1Cl)c1ccccc1Nc1ccnc(C(F)(F)F)c1 and write its reported GI50.
15

----------
# GI50 annotations
- System: COLO 205
- PROTOCOL DESCRIPTION: Growth inhibitory activity against colon cancer COLO 205 cell line was determined
- Format: functional
- DETAILS: Homo sapiens
Please respond with the number in µM and leave the unit unwritten.

* COc1cccc(OC(=O)c2ccccc2Nc2ccnc(C(F)(F)F)c2)c1 | 2.2
* O=C(Oc1c(Cl)cc(Cl)cc1Cl)c1ccccc1Nc1ccnc(C(F)(F)F)c1 | 6.3
* O=C(Oc1cccnc1)c1ccccc1Nc1ccnc(C(F)(F)F)c1 | 0.14

Proceed to the following item.
Annotate the compound CCOC(=O)CNC(=O)c1ccccc1Nc1ccnc(C(F)(F)F)c1 with its measured GI50.
19
